Data provenance: patent US5707977A

test: Solubility in water and in 0.1N HCl (1 hour shaking at room temperature, UV-spectroscopy); type: physicochemical; conditions: 0.1n hcl, solvent: 0.1N HCl, measured pH 1.25 to 1.75
Structures can show the parent of a compound that is named as a salt.
readout: solubility at 1 h

These solved cases illustrate the format of a correct answer.
molecule	data.value
CC(C)(C)C(Cn1ncn(-c2ccc(N3CCN(c4ccc(OC[C@H]5CO[C@](Cn6cncn6)(c6ccc(F)cc6F)O5)cc4)CC3)cc2)c1=O)OC(=O)CN (stereo partly shown)	> 6000 µg/mL
CC(C)(C)C(Cn1ncn(-c2ccc(N3CCN(c4ccc(OC[C@H]5CO[C@](Cn6cncn6)(c6ccc(F)cc6F)O5)cc4)CC3)cc2)c1=O)OC(=O)CN1CCN(CCO)CC1 (stereo partly shown)	> 6000 µg/mL
CN1CCN(CC(=O)OC(Cn2ncn(-c3ccc(N4CCN(c5ccc(OC[C@H]6CO[C@](Cn7cncn7)(c7ccc(F)cc7F)O6)cc5)CC4)cc3)c2=O)C(C)(C)C)CC1 (stereo partly shown)	4890 µg/mL
CC(C)(C)C(Cn1ncn(-c2ccc(N3CCN(c4ccc(OC[C@H]5CO[C@](Cn6cncn6)(c6ccc(F)cc6F)O5)cc4)CC3)cc2)c1=O)OC(=O)CCN (mixture of isomers) [Compound 36, monohydrochloride]	> 6000 µg/mL
CCN(CC)CC(=O)OC(Cn1ncn(-c2ccc(N3CCN(c4ccc(OC[C@H]5CO[C@](Cn6cncn6)(c6ccc(F)cc6F)O5)cc4)CC3)cc2)c1=O)C(C)(C)C (stereo partly shown)	5220 µg/mL
CN1CCN(CCC(=O)OC(Cn2ncn(-c3ccc(N4CCN(c5ccc(OC[C@H]6CO[C@](Cn7cncn7)(c7ccc(F)cc7F)O6)cc5)CC4)cc3)c2=O)C(C)(C)C)CC1 (stereo partly shown)	> 6000 µg/mL

Now, please, on to the next molecule.
Memo: CC(C)(C)C(Cn1ncn(-c2ccc(N3CCN(c4ccc(OC[C@H]5CO[C@](Cn6cncn6)(c6ccc(F)cc6F)O5)cc4)CC3)cc2)c1=O)OC(=O)CCN1CCCC1 (mixture of isomers) [Compound 37, monohydrate] , reported solubility at 1 h: > 6000 µg/mL
